B1: PTPLAD1 (parent)
chain: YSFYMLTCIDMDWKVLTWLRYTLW

- Variants of: B1
- procedureText: protein stability index of a GFP-peptide fusion (GPS, HEK-293T) (PSI 1-6); higher = more stable;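 further: lentivirally expressed fusions sorted by FACS into six bins by GFP to DsRed ratio, PSI derived from sequencing read proportions per bin multiplied by bin number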
- conditionInfo: c terminus: a fixed tail appended
// label = T if protein stability index is not less than 2, otherwise F

# variantDesignation, categoryLabel
records = [
    ("M11H", "F"),
    ("Y1C", "T"),
    ("K14R", "T"),
    ("I9K", "F"),
    ("W13G", "T"),
    ("M11D", "F"),
    ("K14F", "F"),
    ("K14M", "F"),
    ("L6A", "T"),
    ("L6F", "T"),
    ("L19Q", "T"),
    ("T7F", "T"),
    ("D12I", "F"),
    ("V15L", "F"),
    ("M5Q", "T"),
    ("T7D", "T"),
    ("K14L", "T"),
    ("T7E", "T"),
    ("I9F", "T"),
    ("D10I", "T"),
    ("W18K", "T"),
    ("V15R", "F"),
]
